System: Hs-578T
Assay: NCI tumour cell line growth inhibition, 48 h
Calls of active or inactive are those of the source. No stated cut-off is given here; in the data, active = GI50 up to about 1.1 µM and inactive = higher.
Collected GI50 values appear next to each entry.

Solved entries (count: 5):
| Record Smiles | GI50 |
| --- | --- |
| O=S(=O)(O)c1cc(S(=O)(=O)O)c2c(/N=N/c3ccc(/N=N/c4ccccc4)cc3)c(O)ccc2c1 | > 100 µM (inactive) |
| CCc1nc(N)nc(N)c1-c1ccc(Cl)c(/N=N/N(C)C)c1 | 30.3 µM (inactive) |
| COc1ccc2nc3cc(Cl)ccc3c(Nc3ccc(O)c(CN4CCN(C)CC4)c3)c2c1 | 1.89 µM (inactive) |
| Cc1ccc(S(=O)(=O)N2CCSCCSCCN(S(=O)(=O)c3ccc(C)cc3)CCN(S(=O)(=O)c3ccc(C)cc3)CC2)cc1 | > 100 µM (inactive) |
| CC(C)NC(=O)CN1CCN(C2=CC(=O)c3c(O)ccc(O)c3C2=O)CC1 | 25.9 µM (inactive) |

Q: Answer with the recorded GI50 of O=c1c2cc(Br)ccc2oc2nc3n(c(=O)c12)CCCS3 only.
A: > 100 µM (inactive)

Q: Answer with the recorded GI50 of COc1ncc(/C=C2\OC(=O)c3ccccc32)c(OC)n1 only.
A: 10.1 µM (inactive)

Q: Answer with the recorded GI50 of N=C(N)SCc1ccc2c(c1)Sc1ccccc1O2 only.
A: 4.56 µM (inactive)

Q: Answer with the recorded GI50 of C/C=C(/C)c1cnc(CC(C)C)c(=O)[nH]1 only.
A: > 100 µM (inactive)

Q: Answer with the recorded GI50 of C[C@@H]1S[C@H](c2c(Cl)cccc2Cl)N2Cc3ccccc3N=C12 only.
A: > 100 µM (inactive)

----------
System: SK-OV-3
Assay: NCI tumour cell line growth inhibition, 48 h
The source made the active and inactive calls. Rule as the data show it: active = GI50 up to about 1.1 µM and inactive = higher.
Quantity: GI50

| Molecule | GI50 |
| --- | --- |
| Cc1ccc(S(=O)(=O)NC(CO)C(=O)O)cc1 (stereo unspecified) | > 100 µM (inactive) |

Q: Answer with the recorded GI50 of COC1=C(OC)C(=O)C(Cc2c(Cl)nc3sccn23)=C(C)C1=O only.
A: 10.1 µM (inactive)

Q: Answer with the recorded GI50 of O=[N+]([O-])c1cccc2nccc(NCCN3CCOCC3)c12 only.
A: 35.2 µM (inactive)

Q: Answer with the recorded GI50 of COc1ccc(CCc2nccn2C)cc1OC only.
A: > 100 µM (inactive)

Q: Answer with the recorded GI50 of COc1ccc(-n2c3c(c4cc(O)ccc42)C(=O)c2ccccc2C3=O)cc1 only.
A: 0.404 µM (active)

Q: Answer with the recorded GI50 of CC1=CC2CC(C)C1(C)CCc1ccoc12 (stereo unspecified) only.
A: > 100 µM (inactive)

----------
Collected GI50 values appear next to each entry.
System: OVCAR-5
Experiment: NCI tumour cell line growth inhibition, 48 h
The source made the active and inactive calls. Rule as the data show it: active = GI50 up to about 1.1 µM and inactive = higher.

Solved entries (count: 4):
| Compound | Quantity | Endpoint Value |
| --- | --- | --- |
| C[C@H]1[C@H](N2CCCC2)O[Si](C(C)(C)C)(C(C)(C)C)[C@@H]1C | GI50 | > 100 µM (inactive) |
| Cc1cc(NS(=O)(=O)c2ccc(Nc3c4ccccc4nc4ccc(C(=O)Nc5ccc(S(N)(=O)=O)cc5)cc34)cc2)no1 | GI50 | > 100 µM (inactive) |
| C/C=C(/C)c1cnc(CC(C)C)c(=O)[nH]1 | GI50 | > 100 µM (inactive) |
| c1ccc(/N=C2/SC(c3ccccc3)(c3ccccc3)c3ccccc32)cc1 | GI50 | > 100 µM (inactive) |

Q: Answer with the recorded GI50 of CCOC(=O)N(C)C1(c2ccccc2)CCN(CCCC(=O)c2ccc(F)cc2)CC1 only.
A: 49 µM (inactive)

Q: Answer with the recorded GI50 of O=S(=O)(c1ccccc1)C1(CCC2OCCO2)C=CC2(CC1)OCCO2 (centres undefined) only.
A: > 100 µM (inactive)

Q: Answer with the recorded GI50 of CC(/C=C/NNC1=NN=C(c2ccccc2)C(c2ccccc2)N1)Sc1ccccc1N (centres undefined) only.
A: 17.5 µM (inactive)

Q: Answer with the recorded GI50 of COc1ccc(/C=C/C(=O)c2sc(-c3cccnc3)nc2C)cc1 only.
A: > 100 µM (inactive)

Q: Answer with the recorded GI50 of Cc1ccc(S(=O)(=O)N2CCSCCSCCN(S(=O)(=O)c3ccc(C)cc3)CCN(S(=O)(=O)c3ccc(C)cc3)CC2)cc1 only.
A: > 100 µM (inactive)

----------
Tested on: NCI-H460
Test: NCI tumour cell line growth inhibition, 48 h
Active and inactive are the calls of the source. Rule as the data show it: active = GI50 up to about 1.1 µM and inactive = higher.
Quantity: GI50

Solved entries (count: 4):
| Compound | Tested Target | Endpoint Value |
| --- | --- | --- |
| O=C1CC(c2ccccc2)Oc2ccccc21 (configuration not stated) [FLAVANONE] | NCI-H460 | 32.1 µM (inactive) |
| NC(C(=O)O)c1cc(O)no1 (configuration not stated) | NCI-H460 | > 100 µM (inactive) |
| N#CCC12CC=CCC1=C(O)C(=O)c1ccc(O)cc12 (configuration not stated) | NCI-H460 | > 100 µM (inactive) |
| O=C(O)C1c2ccccc2C(C(=O)O)c2ccccc21 (configuration not stated) | NCI-H460 | > 100 µM (inactive) |

Q: Answer with the recorded GI50 of O=S1(=O)C(=C(c2ccccc2)c2ccccc2)S(=O)(=O)c2ccccc21 only.
A: > 100 µM (inactive)

Q: Answer with the recorded GI50 of Cc1ccccc1NC(=O)C(=O)C(C#N)c1ccccc1C (configuration not stated) only.
A: 38.2 µM (inactive)

Q: Answer with the recorded GI50 of NS(=O)(=O)c1nnc(NS(=O)(=O)c2cccc3cccnc23)s1 only.
A: > 100 µM (inactive)

Q: Answer with the recorded GI50 of N#CCCC1(CCC#N)CCCCCCC(CCC#N)(CCC#N)C(=O)C1=O only.
A: > 100 µM (inactive)

Q: Answer with the recorded GI50 of Clc1cccc(N/N=N/c2ccc(-c3nc4ccccc4s3)cc2)c1 only.
A: 50.9 µM (inactive)

----------
Tested on: A549
Assay: NCI tumour cell line growth inhibition, 48 h
The source made the active and inactive calls. Rule as the data show it: active = GI50 up to about 1.1 µM and inactive = higher.
Quantity: GI50

| Compound | GI50 |
| --- | --- |
| O=C(CCc1nnc2s/c(=C\c3ccccc3Cl)c(=O)n12)Nc1cc(Cl)ccc1Cl | > 100 µM (inactive) |
| COc1cc(S(=O)(=O)Nc2ccc(-c3csc(/N=C\C=C\c4ccccc4)n3)cc2)ccc1Cl | 80.5 µM (inactive) |
| COC(=O)/C(C=O)=C/Sc1ccccc1 | 11.3 µM (inactive) |
| CC(C)OP(=O)(OC(C)C)/C(=N/Nc1ccc([N+](=O)[O-])cc1)NN | 75.3 µM (inactive) |
| CCCCc1nccc2c(C)c3[nH]c4ccccc4c3cc12 | 3.87 µM (inactive) |

Q: Answer with the recorded GI50 of CN1c2ccccc2C2=C(c3ccccc3)CC[C@@H](C(=O)N3C4CC5CC[C@@]4(CS3(=O)=O)C5(C)C)[C@@H]21 (some centres not stated) only.
A: > 100 µM (inactive)

----------
Collected GI50 values appear next to each entry.
Test system: DMS-273
Experiment: NCI tumour cell line growth inhibition, 48 h
Active and inactive are the calls of the source. Rule as the data show it: active = GI50 up to about 1.1 µM and inactive = higher.

| Molecule | GI50 |
| --- | --- |
| CC(C)OP(=O)(OC(C)C)/C(=N/Nc1ccc([N+](=O)[O-])cc1)NN | > 100 µM (inactive) |
| CCC12CCC(O)C1N(C)CCC2Sc1ccccc1 (stereo not given) | > 100 µM (inactive) |
| FC(F)(F)C1(Br)C(c2ccccc2)=C1c1ccccc1 | 17.9 µM (inactive) |
| COC(=O)/C(C=O)=C/Sc1ccccc1 | 18.4 µM (inactive) |
| O=C1C2=C(c3ccccc31)C(c1ccccc1Cl)NC(S)=N2 (stereo not given) | 68.7 µM (inactive) |
| CC(C)OP(=O)(OC(C)C)C1=NN(c2ccc([N+](=O)[O-])cc2)C(P(=O)(OC(C)C)OC(C)C)=NN1c1ccc([N+](=O)[O-])cc1 | 22.5 µM (inactive) |
| CN1c2ccccc2N(C)C23N(C)c4ccccc4N(C)C12N(C)c1ccccc1N3C (stereo not given) | > 100 µM (inactive) |
| Cc1ccc(C2C(Cl)C(=O)N2NC(=O)c2ccc(N)cc2)cc1 (stereo not given) | 2.46 µM (inactive) |

Let us move to another entry and its GI50.
Q: Answer with the recorded GI50 of CSC(=O)C[C@@]12O[C@@H]([C@@H](C)C3CCC4[C@@H]5C(O)CC6=CC(=O)C=C[C@]6(C)C5CC[C@@]43C)C[C@](C)(O1)C(C)(C)O2 (stereo not given in full) only.
A: 15.9 µM (inactive)

----------
System: KM12
Assay: NCI tumour cell line growth inhibition, 48 h
Active and inactive are the calls of the source. Rule as the data show it: active = GI50 up to about 1.1 µM and inactive = higher.
Quantity: GI50

Solved entries (count: 8):
| Molecule | GI50 |
| --- | --- |
| Cc1cc(N)c2cc(NC(=O)Nc3ccc4nc(C)cc(N)c4c3)ccc2n1 | > 100 µM (inactive) |
| Nc1nc(N)c2cc(-c3cc4ccccc4[nH]3)ccc2n1 | 17.8 µM (inactive) |
| COc1ccc2c(c1)CCc1c(CO)c(COC(=O)NC(C)C)n(C)c1-2 | 6.61 µM (inactive) |
| CC(=O)Nc1ccc(C2C(C(=O)Nc3ccccc3)=C(C)NC(C)=C2C(=O)Nc2ccccc2)cc1 | > 100 µM (inactive) |
| Cc1c2c(cc3c(=O)ccn(CCN(C)C)c13)c(=O)ccn2CCN(C)C | 3.08 µM (inactive) |
| CSC(=O)C[C@@]12O[C@@H]([C@@H](C)C3CCC4[C@@H]5C(O)CC6=CC(=O)C=C[C@]6(C)C5CC[C@@]43C)C[C@](C)(O1)C(C)(C)O2 (stereo not given in full) | 16 µM (inactive) |
| NS(=O)(=O)c1nnc(NS(=O)(=O)c2cccc3cccnc23)s1 | > 100 µM (inactive) |
| Cc1cn(CC(=S)NCCc2c[nH]c3ccccc23)c(=O)[nH]c1=O | > 100 µM (inactive) |

Q: State, for KM12, measured GI50 of the molecule listed here: Cc1ccc(S(=O)(=O)N2C[C@@H]3CC[C@]4(CO[Si](C)(C)C(C)(C)C)N[C@@H](c5ccccc5)[C@H]2[C@H]34)cc1
A: 26.5 µM (inactive)

Q: State, for KM12, measured GI50 of the molecule listed here: COc1ccc(NC(C)=O)cc1C1CCC(=O)N1 (stereo not given)
A: > 100 µM (inactive)

Data provenance is ChEMBL document CHEMBL1201862.
